Data provenance is patent US20240316022A1.

Assayed Target: FGFR2 (Homo sapiens, UniProt P21802)
Construct: made in house; host or cells: E. coli derived from BL21, infected with T7 phage
Sequence (P21802 22-821): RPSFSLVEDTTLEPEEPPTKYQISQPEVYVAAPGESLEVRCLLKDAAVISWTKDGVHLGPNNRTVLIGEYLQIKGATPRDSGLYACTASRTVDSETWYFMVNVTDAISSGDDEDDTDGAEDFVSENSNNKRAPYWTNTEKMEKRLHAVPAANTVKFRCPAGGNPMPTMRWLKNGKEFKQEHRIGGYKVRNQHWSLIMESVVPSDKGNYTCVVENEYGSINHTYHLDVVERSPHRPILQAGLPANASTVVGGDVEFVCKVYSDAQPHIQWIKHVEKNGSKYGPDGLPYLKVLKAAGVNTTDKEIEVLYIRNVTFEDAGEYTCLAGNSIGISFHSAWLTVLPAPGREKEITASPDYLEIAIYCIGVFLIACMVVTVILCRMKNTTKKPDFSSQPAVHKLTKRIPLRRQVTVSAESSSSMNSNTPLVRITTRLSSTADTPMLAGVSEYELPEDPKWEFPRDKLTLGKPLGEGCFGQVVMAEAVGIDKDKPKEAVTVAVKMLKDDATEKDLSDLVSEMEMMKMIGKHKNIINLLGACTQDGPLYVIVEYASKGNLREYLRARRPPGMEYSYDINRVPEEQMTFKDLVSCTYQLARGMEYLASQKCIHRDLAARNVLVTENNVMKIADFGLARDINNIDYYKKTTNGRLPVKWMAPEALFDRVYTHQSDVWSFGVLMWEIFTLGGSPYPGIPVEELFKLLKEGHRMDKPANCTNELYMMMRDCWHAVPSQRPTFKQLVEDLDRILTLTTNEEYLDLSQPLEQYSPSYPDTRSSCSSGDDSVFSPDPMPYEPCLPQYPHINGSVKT
Assay Comment: Kinase binding assay (kinase-tagged T7 phage, qPCR), Kd
Details: read-out: FGFR2 (Kd nM)
Would you kindly list Kd for each of these compounds?

# annotated cases, reported Kd shown
Compound | Assayed Target | Kd
C[C@@H](Oc1ccc2[nH]nc(-c3ccc4c(c3)C(=O)CC3(CCNCC3)O4)c2c1)c1c(Cl)cncc1Cl [Example 92] | FGFR2 (Homo sapiens, UniProt P21802) | 0.1 to 100 nM
COc1cc(-c2n[nH]c3ccc(O[C@H](C)c4c(Cl)cncc4Cl)cc23)cc(C#N)c1OC1CCN(C(C)C)CC1 [Example 126] | FGFR2 (Homo sapiens, UniProt P21802) | > 1000 nM
Cc1ncc(Cl)c([C@@H](C)Oc2ccc3[nH]nc(-c4ccc5c(c4)COC4(CCN(CC(F)(F)F)CC4)O5)c3c2)c1Cl [Example 167] | FGFR2 (Homo sapiens, UniProt P21802) | 100 to 250 nM
COc1cc(C#N)cc(-c2n[nH]c3cc(OC)c(O[C@@H](C)c4c(C)cnnc4C)cc23)c1 [Example 97] | FGFR2 (Homo sapiens, UniProt P21802) | > 1000 nM
COc1cc(-c2n[nH]c3ccc(O[C@H](C)c4c(C)cnnc4C)cc23)cc(C#N)c1OC [Example 76] | FGFR2 (Homo sapiens, UniProt P21802) | > 1000 nM

Please give Kd for each item listed below.
1. Cc1ncccc1C(=O)N1CCOc2ncc(-c3n[nH]c4ccc(O[C@H](C)c5c(Cl)cncc5Cl)cc34)cc21 [Example 42]
2. Cc1ncc(Cl)c([C@@H](C)Oc2cc3c(-c4cnc5c(c4)N(S(C)(=O)=O)CCO5)n[nH]c3cc2Cl)c1Cl [Example 143]

### Response
1: > 1000 nM; 2: > 1000 nM

* * *

Assayed Target: FGFR4 (Homo sapiens, UniProt P22455)
Construct: made in house; host or cells: E. coli derived from BL21, infected with T7 phage
Sequence (P22455 22-802): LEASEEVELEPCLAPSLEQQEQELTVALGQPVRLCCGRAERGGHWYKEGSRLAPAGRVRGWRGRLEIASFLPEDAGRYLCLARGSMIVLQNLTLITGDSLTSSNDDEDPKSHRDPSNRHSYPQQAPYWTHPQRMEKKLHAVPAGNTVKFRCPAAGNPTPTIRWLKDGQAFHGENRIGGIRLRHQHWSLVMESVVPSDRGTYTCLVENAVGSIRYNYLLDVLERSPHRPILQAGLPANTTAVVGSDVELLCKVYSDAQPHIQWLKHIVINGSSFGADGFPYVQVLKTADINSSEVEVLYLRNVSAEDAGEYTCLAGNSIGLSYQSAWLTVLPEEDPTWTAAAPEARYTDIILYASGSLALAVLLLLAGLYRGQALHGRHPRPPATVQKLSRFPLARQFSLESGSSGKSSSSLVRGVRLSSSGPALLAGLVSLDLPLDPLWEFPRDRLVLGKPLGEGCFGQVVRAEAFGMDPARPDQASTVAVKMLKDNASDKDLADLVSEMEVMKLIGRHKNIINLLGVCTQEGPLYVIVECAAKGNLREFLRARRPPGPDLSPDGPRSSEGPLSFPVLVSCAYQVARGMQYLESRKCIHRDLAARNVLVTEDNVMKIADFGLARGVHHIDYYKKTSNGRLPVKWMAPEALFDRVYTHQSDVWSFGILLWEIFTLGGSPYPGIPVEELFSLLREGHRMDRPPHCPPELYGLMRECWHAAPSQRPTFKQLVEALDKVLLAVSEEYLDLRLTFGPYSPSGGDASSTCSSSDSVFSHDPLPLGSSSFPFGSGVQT
Assay Comment: Kinase binding assay (kinase-tagged T7 phage, qPCR), Kd
Details: read-out: FGFR4 (Kd nM)
Provide the reported Kd of each item.

Cpd Smiles | Kd
COc1cc2[nH]nc(-c3cnc(N(C)C)c(C#N)c3)c2cc1O[C@H](C)c1c(Cl)cncc1Cl | 0.1 to 100 nM
Cc1cc2[nH]nc(-c3cnc(O[C@@H]4CCOC4)c(C#N)c3)c2cc1O[C@H](C)c1c(Cl)cncc1Cl | 0.1 to 100 nM
Cc1ncc(Cl)c([C@@H](C)Oc2ccc3[nH]nc(-c4ccc5c(c4)COC4(CCN(CC(F)(F)F)CC4)O5)c3c2)c1Cl | 0.1 to 100 nM
Cc1cc(-c2n[nH]c3ccc(O[C@H](C)c4c(Cl)cncc4Cl)cc23)cnc1N[C@H]1CCOC1 | 0.1 to 100 nM
Cc1cc(C(=O)N2CCOc3ncc(-c4n[nH]c5ccc(O[C@H](C)c6c(Cl)cncc6Cl)cc45)cc32)ccn1 | 0.1 to 100 nM
CCOc1cc(-c2n[nH]c3ccc(O[C@H](C)c4c(Cl)cncc4Cl)cc23)cnc1N | 0.1 to 100 nM

For the 5 molecules below, give their Kd values.
1. Cc1cc(-c2n[nH]c3ccc(O[C@H](C)c4c(C)cnnc4C)cc23)cc(C#N)c1F
2. C[C@@H](Oc1ccc2[nH]nc(-c3cnc4c(c3)N(CCO)CCO4)c2c1)c1c(Cl)cncc1Cl
3. C[C@@H](Oc1ccc2[nH]nc(-c3ccc4c(c3)C(=O)CC3(CCNCC3)O4)c2c1)c1c(Cl)cncc1Cl
4. COc1ncc(-c2n[nH]c3ccc(O[C@H](C)c4c(C)cnnc4C)cc23)cc1C#N
5. Cc1cnnc(C)c1[C@H](C)Oc1ccc2[nH]nc(-c3cc(C#N)cc(N4CC5(CN(C)C5)C4)c3)c2c1

### Response
1: 0.1 to 100 nM; 2: 100 to 250 nM; 3: 0.1 to 100 nM; 4: 0.1 to 100 nM; 5: > 1000 nM

Record Kd per entry; entries follow.
1. COc1cc(-c2n[nH]c3ccc(O[C@H](C)c4c(C)cnnc4C)cc23)cc(C#N)c1F
2. Cc1cnnc(C)c1[C@@H](C)Oc1ccc2[nH]nc(-c3cc(C#N)cc(N4CCOCC4)c3)c2c1
3. COc1ncc(-c2n[nH]c3ccc(O[C@H](C)c4c(Cl)cncc4Cl)cc23)cc1NC(=O)c1ccccn1
4. COc1cc(C#N)cc(-c2n[nH]c3ccc(O[C@H](C)c4c(C)cnnc4C)cc23)c1

### Response
100 to 250 nM
100 to 250 nM
0.1 to 100 nM
0.1 to 100 nM

* * *

Assayed Target: FGFR2 (Homo sapiens, UniProt P21802)
Construct: made in house; host or cells: E. coli derived from BL21, infected with T7 phage
Assay Comment: Kinase binding assay (kinase-tagged T7 phage, qPCR), Kd
Protocol: Kinase-tagged T7 phage strains were prepared in an E. coli host derived from the BL21 strain. E. coli were grown to log-phase and infected with T7 phage and incubated with shaking at 32° C. until lysis. […] Kds were determined using an 11-point 3-fold compound dilution series with three DMSO control points. […] The kinase concentration in the eluates was measured by qPCR. Binding constants were calculated with a standard dose-response curve using the Hill equation: […]
pKd: −log10 of the molar value. Where a name gives a salt, the structure may show the parent alone.
Experimental Readout: pKd

### Prompt Which measured pKd value corresponds to C[C@@H](Oc1ccc2[nH]nc(-c3ccc4c(c3)COC3(CCNCC3)O4)c2c1)c1c(Cl)cncc1Cl [Example 94, TFA salt] ?
### Response 7.00 to 10.00

* * *

Assayed Target: FGFR1 (Homo sapiens)
Construct: made in house; host or cells: E. coli derived from BL21, infected with T7 phage
Sequence (P11362 22-822): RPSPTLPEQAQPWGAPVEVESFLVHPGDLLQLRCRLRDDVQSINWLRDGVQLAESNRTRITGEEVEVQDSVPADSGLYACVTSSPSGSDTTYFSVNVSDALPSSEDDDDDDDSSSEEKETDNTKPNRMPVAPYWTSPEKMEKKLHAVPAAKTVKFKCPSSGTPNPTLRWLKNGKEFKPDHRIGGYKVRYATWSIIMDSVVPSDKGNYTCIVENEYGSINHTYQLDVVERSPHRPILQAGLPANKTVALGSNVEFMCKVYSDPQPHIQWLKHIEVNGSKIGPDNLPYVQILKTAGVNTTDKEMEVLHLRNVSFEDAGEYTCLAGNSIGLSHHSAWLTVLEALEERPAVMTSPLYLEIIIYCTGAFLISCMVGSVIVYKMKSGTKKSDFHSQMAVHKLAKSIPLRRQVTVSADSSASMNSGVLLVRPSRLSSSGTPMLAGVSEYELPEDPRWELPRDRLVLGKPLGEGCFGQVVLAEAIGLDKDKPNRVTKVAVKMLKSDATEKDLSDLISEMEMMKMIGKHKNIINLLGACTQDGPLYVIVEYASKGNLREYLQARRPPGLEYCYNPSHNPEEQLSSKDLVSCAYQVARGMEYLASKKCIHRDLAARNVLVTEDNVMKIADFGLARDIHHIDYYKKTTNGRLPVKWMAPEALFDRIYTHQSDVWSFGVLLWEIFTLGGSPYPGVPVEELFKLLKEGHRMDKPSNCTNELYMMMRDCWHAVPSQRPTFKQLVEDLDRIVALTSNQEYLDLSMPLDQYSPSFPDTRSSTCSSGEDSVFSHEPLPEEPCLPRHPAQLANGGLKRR
Assay Comment: Kinase binding assay (kinase-tagged T7 phage, qPCR), Kd
Details: given as a number, not a class symbol; read-out: FGFR1 (Kd nM)
Experimental Readout: Kd (nM)
Answers are plain numbers, in nM.

### Prompt // returns reported Kd for input CCN1CCC2(CC1)CC(O)c1cc(-c3n[nH]c4ccc(O[C@H](C)c5c(Cl)cncc5Cl)cc34)ccc1O2 (stereo partly shown)
### Response 45

* * *

Assayed Target: BCR-FGFR1 Ba/F3 (Homo sapiens)
Construct: host or cells: Ba/F3; the other entry of the earlier key: BCR (P11274, Breakpoint cluster region protein)
Assay Comment: Ba/F3 cell viability assay (CellTiter-Glo 2.0)
Type: cell-based
Details: Ba/F3 BCR-FGFR1 cells, 48 hours
Source text: Experimental Purpose: Recombinant kinase fusions are transduced into parental Ba/F3, which becomes dependent upon this constitutive kinase activity for IL3-independent survival. Inhibition of kinase activity leads to cell death, which is monitored using CellTiter-Glo® 2.0 (Promega) which measures intracellular ATP concentration that in turn serves as a marker for viability. BCR-FGFR4 Ba/F3, BCR-FGFR1 Ba/F3 and FGFR3-BAIAP2L1 Ba/F3 were obtained from Advanced Cellular Dynamics (Seattle, WA) […]
Consider the following compounds; for each one, report its IC50.

Would you please look over these solved cases?
Cpd Smiles | Result
C[C@@H](Oc1ccc2[nH]nc(-c3ccc(NC(=O)N4CCOCC4)nc3)c2c1)c1c(Cl)cncc1Cl | 0.1 to 100 nM
C[C@@H](Oc1ccc2[nH]nc(-c3ccc4c(c3)COC3(CCN(C5CCC5)CC3)O4)c2c1)c1c(Cl)cncc1Cl | 250 to 1000 nM
C[C@@H](Oc1ccc2[nH]nc(-c3cnc4c(c3)N(S(C)(=O)=O)CCO4)c2c1)c1c(Cl)cncc1Cl | 250 to 1000 nM
C[C@@H](Oc1ccc2[nH]nc(-c3ccc4c(c3)COC3(CCN(S(C)(=O)=O)CC3)O4)c2c1)c1c(Cl)cncc1Cl | 250 to 1000 nM
Cc1ncc(Cl)c([C@@H](C)Oc2ccc3[nH]nc(-c4ccc(NC5CCOCC5)nc4)c3c2)c1Cl | 100 to 250 nM
CCN1CCC2(CC1)CC(=O)c1cc(-c3n[nH]c4ccc(O[C@H](C)c5c(Cl)cncc5Cl)cc34)ccc1O2 | 100 to 250 nM

Next:
### Prompt Please report the recorded IC50 for "Cc1cnnc(C)c1[C@@H](C)Oc1ccc2[nH]nc(-c3cc(C#N)cc(OCCO)c3)c2c1" .
### Response 250 to 1000 nM

* * *

Assayed Target: FGFR2 (Homo sapiens, UniProt P21802)
Construct: made in house; host or cells: E. coli derived from BL21, infected with T7 phage
Assay Comment: Kinase binding assay (kinase-tagged T7 phage, qPCR), Kd
Details: read-out: FGFR2 (Kd nM)
Please go through the items and note down their Kd.

These solved cases illustrate the format of a correct answer.
Compound | Assayed Target | Kd
C[C@@H](Oc1ccc2[nH]nc(-c3ccc(NC(=O)N(C)C)nc3)c2c1)c1c(Cl)cncc1Cl | FGFR2 (Homo sapiens, UniProt P21802) | 0.1 to 100 nM
COc1ncc(-c2n[nH]c3ccc(O[C@H](C)c4c(Cl)cncc4Cl)cc23)cc1N | FGFR2 (Homo sapiens, UniProt P21802) | 100 to 250 nM

Look up Kd for the entries below, preserving their order.
1. CCOc1cc(C#N)cc(-c2n[nH]c3ccc(O[C@H](C)c4c(C)cnnc4C)cc23)c1
2. COCCNc1cc(-c2n[nH]c3ccc(O[C@H](C)c4c(Cl)cncc4Cl)cc23)ccn1

### Response
["250 to 1000 nM", "0.1 to 100 nM"]
